Target: PI3K-alpha (Homo sapiens, UniProt P42336)
Sequence (P42336 whole entry, species assumed): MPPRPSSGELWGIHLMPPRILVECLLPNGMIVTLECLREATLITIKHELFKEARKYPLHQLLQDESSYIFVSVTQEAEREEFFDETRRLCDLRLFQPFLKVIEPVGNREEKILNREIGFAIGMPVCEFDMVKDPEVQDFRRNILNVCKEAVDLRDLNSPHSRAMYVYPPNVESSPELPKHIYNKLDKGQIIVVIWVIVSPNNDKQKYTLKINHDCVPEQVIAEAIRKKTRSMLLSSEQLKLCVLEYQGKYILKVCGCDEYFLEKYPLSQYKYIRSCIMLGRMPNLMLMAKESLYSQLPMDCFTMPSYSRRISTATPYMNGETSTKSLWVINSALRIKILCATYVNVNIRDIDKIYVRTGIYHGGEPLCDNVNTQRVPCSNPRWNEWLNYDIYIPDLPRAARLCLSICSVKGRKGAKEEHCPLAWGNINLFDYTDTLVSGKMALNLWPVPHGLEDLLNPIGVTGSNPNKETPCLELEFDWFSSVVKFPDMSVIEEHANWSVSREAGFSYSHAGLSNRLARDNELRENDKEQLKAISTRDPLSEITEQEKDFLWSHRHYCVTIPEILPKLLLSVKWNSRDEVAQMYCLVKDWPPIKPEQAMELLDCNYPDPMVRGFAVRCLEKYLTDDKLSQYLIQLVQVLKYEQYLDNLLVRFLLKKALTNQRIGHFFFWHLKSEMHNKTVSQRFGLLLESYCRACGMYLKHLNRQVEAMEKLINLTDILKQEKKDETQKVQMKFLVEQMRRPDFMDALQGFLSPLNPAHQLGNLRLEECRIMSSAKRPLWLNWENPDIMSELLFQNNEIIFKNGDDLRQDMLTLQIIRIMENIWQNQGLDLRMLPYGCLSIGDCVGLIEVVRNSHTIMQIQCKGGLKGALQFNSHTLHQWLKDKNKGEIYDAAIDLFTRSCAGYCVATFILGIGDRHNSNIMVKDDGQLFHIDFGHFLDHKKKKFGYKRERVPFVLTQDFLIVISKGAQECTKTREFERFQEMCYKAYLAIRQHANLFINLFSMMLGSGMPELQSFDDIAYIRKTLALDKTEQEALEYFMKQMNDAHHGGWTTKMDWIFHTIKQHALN
Sequence (P27986 whole entry partner, species assumed): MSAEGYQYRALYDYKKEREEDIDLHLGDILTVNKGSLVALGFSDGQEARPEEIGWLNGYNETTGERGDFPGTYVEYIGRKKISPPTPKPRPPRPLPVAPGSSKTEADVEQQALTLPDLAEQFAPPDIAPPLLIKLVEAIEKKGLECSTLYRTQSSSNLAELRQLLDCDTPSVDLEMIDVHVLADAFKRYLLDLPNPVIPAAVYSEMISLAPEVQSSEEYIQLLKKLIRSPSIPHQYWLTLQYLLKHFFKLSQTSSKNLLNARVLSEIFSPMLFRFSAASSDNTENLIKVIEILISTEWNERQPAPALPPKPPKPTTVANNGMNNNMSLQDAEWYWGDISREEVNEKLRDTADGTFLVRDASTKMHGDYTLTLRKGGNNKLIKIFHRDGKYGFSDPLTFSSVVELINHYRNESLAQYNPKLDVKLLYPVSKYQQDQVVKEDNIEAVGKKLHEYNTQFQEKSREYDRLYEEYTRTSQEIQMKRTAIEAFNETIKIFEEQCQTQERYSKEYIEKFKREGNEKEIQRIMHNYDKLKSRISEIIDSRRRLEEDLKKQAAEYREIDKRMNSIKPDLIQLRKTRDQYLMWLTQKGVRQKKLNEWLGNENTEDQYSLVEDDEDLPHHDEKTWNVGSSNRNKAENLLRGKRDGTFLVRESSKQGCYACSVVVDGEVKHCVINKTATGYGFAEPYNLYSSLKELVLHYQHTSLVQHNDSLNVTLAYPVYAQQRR
Assay: PI3K-alpha fluorescence polarization assay
Type: biochemical
Settings: read-out: PI3Kα Avg. IC50
pIC50: −log10 of the molar value.
METRIC NAME: pIC50

1. COc1ccc2[nH]c(-c3c(C)nn(C)c3C)c(/C=C3\Oc4ccc(NC(=O)Nc5ccc(C(=O)N6CCC(N(C)C)CC6)cc5)cc4C3=O)c2c1 [Compound 702]
2. COc1ccc2c(c1)c(/C=C1\Oc3ccc(NC(=O)Nc4ccc(N(C)C(=O)CCN(C)C)cc4)cc3C1=O)c(C)n2CCN1CCN(C)CC1 [Compound 695]
3. O=C1/C(=C/c2c[nH]c3ccc(F)cc23)Oc2c1ccc(O)c2O [Example 64]
4. CNC(=O)Nc1ccc2c(c1)C(=O)/C(=C/c1cn(CCCC#N)c3ccc(OC)cc13)O2 [Compound 579]
Going from lowest to highest recorded pIC50, rank the entries listed above. Answer by listing the labels in the requested order.
3, 4, 2, 1
(3: 5.77, 4: 7.52, 2: 8.40, 1: 9.52)

a. CCN1CCN(C(=O)c2ccc(NC(=O)Nc3ccc4c(c3)C(=O)/C(=C/c3c(-c5c(C)nn(C)c5C)[nH]c5ccc(OC)cc35)O4)cc2)CC1 [Compound 699]
b. CNC(=O)Nc1ccc2c(c1)C(=O)/C(=C/c1c(C)n(CCCN3CCC(O)CC3)c3ccc(OC)cc13)O2 [Compound 587]
c. COc1ccc2c(c1)c(C=C1Oc3cccc(O)c3C1=O)c(C)n2CCCCN1CCN(CCO)CC1 [Example 137]
d. O=C1/C(=C/c2cn(Cc3ccccc3)c3ccccc23)Sc2ccccc21 [Example 282]
e. O=C1C(=Cc2c[nH]c3c(Cl)cccc23)Oc2cc(O)cc(O)c21 [Example 173]
Returns the items ordered by pIC50, from maximum to minimum. Answer by listing the labels in the requested order.
a, b, c, e, d
(a: 9.40, b: 8.40, c: 6.32, e: 6.12, d: 5.85)

P. COc1ccc2[nH]c(-c3c(C)nn(C)c3C)c(/C=C3\Oc4ccc(NC(=O)Nc5ccc(C(=O)N(C)C6CCN(C)C6)cc5)cc4C3=O)c2c1 (stereo not drawn) [Compound 698]
Q. CNC(=O)Nc1ccc2c(c1)C(=O)/C(=C/c1c(-c3nc(C(C)C)no3)[nH]c3ccc(OC)cc13)O2 [Compound 591]
Recorded pIC50 values differ for P and Q ; which one is higher? # answer = label of selected item
P

I. COc1ccc2[nH]cc(/C=C3\Oc4cc(O)ccc4C3=O)c2c1 [Example 414]
II. CNC(=O)Nc1ccc2c(c1)C(=O)/C(=C/c1c(-c3nc(C(C)C)no3)n(CCN3CCN(C)CC3)c3ccc(OC)cc13)O2 [Compound 614]
III. Cn1cc(/C=C2\Oc3cc(O)cc(O)c3C2=O)c2c(-c3ccc(NCCN4CCOCC4)nc3)cccc21 [Example 402]
IV. CNC(=O)Nc1ccc2c(c1)C(=O)/C(=C/c1c(C)n(CCN3CCCC3)c3ccc(OC)cc13)O2 [Compound 611]
V. COc1ccc2c(c1)c(/C=C1\Oc3ccc(CO)cc3C1=O)cn2CCN1CCN(C)CC1 [Compound 541]
Write the entries in order, lowest recorded pIC50 first. Answer by listing the labels in the requested order.
III, V, I, IV, II
(III: 5.43, V: 5.86, I: 7.26, IV: 7.71, II: 8.46)
